I'd be grateful if you could share measured pIC50 for these entries.
Tested on: A-431
testMethodNotes: Cytotoxicity against human A431 cells over expressing EGFR assessed as reduction in cell viability after 72 hrs by sulforhodamine B assay
Type: functional, cell-based
conditionDescription: A-431, 72 h
Give bare numbers, as −log10 of the molar value.

testSmiles | pIC50
CS(=O)(=O)Nc1ccc(-c2cc3c(Nc4ccc(Oc5cccc(C(F)(F)F)c5)c(Cl)c4)ncnc3s2)cc1 | 5.28
Nc1ccc(-c2cc3c(Nc4ccc(Oc5cccc(C(F)(F)F)c5)c(Cl)c4)ncnc3s2)cc1 | 4.94
CCOC(=O)Nc1ccc(-c2cc3c(Nc4ccc(Oc5cccc(C(F)(F)F)c5)c(Cl)c4)ncnc3s2)cc1 | 4.77
O=[N+]([O-])c1ccc(-c2cc3c(NCc4ccccc4)ncnc3s2)cc1 | 5.31
CC(C)/C=C/C(=O)Nc1ccc(-c2cc3c(Nc4ccc(Oc5cccc(C(F)(F)F)c5)c(Cl)c4)ncnc3s2)cc1 | 6.64
O=C(Nc1ccc(-c2cc3c(Nc4ccc(Oc5cccc(C(F)(F)F)c5)c(Cl)c4)ncnc3s2)cc1)NC1CC1 | 5.63
O=[N+]([O-])c1ccc(-c2cc3c(Nc4ccc(OCc5cccc(F)c5)c(Cl)c4)ncnc3s2)cc1 | 4.96
O=C(NCCN1CCOCC1)Nc1ccc(-c2cc3c(Nc4ccc(Oc5cccc(C(F)(F)F)c5)c(Cl)c4)ncnc3s2)cc1 | 5.84
CC(=O)Nc1ccc(-c2cc3c(Nc4ccc(Oc5cccc(C(F)(F)F)c5)c(Cl)c4)ncnc3s2)cc1 | 4.98
Nc1ccc(-c2cc3c(Nc4ccc(OCc5cccc(F)c5)c(Cl)c4)ncnc3s2)cc1 | 5.01

Give pIC50 for each of the items listed below.
1. CS(=O)(=O)CCNCc1ccc(-c2ccc3ncnc(Nc4ccc(OCc5cccc(F)c5)c(Cl)c4)c3c2)o1
2. O=[N+]([O-])c1ccc(-c2cc3c(Nc4ccc(Oc5cccc(C(F)(F)F)c5)c(Cl)c4)ncnc3s2)cc1

1. 5.77
2. 5.76

----------
Would you kindly list pIC50 for each of these compounds?
Test system: NCI-H1975
testMethodNotes: Cytotoxicity against human NCI-H1975 cells harboring EGFR T790M mutant assessed as reduction in cell viability after 72 hrs by sulforhodamine B assay
Type: functional, cell-based
conditionDescription: NCI-H1975, 72 h
Numbers only, as −log10 of the molar value.

Sample records with pIC50:
testSmiles | targetOrSystem | pIC50
CS(=O)(=O)CCNCc1ccc(-c2ccc3ncnc(Nc4ccc(OCc5cccc(F)c5)c(Cl)c4)c3c2)o1 | NCI-H1975 | 4.94
CC(=O)Nc1ccc(-c2cc3c(Nc4ccc(Oc5cccc(C(F)(F)F)c5)c(Cl)c4)ncnc3s2)cc1 | NCI-H1975 | 4.90
O=C(NCCN1CCOCC1)Nc1ccc(-c2cc3c(Nc4ccc(Oc5cccc(C(F)(F)F)c5)c(Cl)c4)ncnc3s2)cc1 | NCI-H1975 | 5.38

API: the following record is the query input.
Which pIC50 value is on record for Nc1ccc(-c2cc3c(Nc4ccc(Oc5cccc(C(F)(F)F)c5)c(Cl)c4)ncnc3s2)cc1 ?
4.86

----------
I'd appreciate it if you could supply pIC50 values for the items below.
targetOrSystem: Epidermal growth factor receptor (Homo sapiens)
Sequence (P00533 whole entry, the tested form may be a part): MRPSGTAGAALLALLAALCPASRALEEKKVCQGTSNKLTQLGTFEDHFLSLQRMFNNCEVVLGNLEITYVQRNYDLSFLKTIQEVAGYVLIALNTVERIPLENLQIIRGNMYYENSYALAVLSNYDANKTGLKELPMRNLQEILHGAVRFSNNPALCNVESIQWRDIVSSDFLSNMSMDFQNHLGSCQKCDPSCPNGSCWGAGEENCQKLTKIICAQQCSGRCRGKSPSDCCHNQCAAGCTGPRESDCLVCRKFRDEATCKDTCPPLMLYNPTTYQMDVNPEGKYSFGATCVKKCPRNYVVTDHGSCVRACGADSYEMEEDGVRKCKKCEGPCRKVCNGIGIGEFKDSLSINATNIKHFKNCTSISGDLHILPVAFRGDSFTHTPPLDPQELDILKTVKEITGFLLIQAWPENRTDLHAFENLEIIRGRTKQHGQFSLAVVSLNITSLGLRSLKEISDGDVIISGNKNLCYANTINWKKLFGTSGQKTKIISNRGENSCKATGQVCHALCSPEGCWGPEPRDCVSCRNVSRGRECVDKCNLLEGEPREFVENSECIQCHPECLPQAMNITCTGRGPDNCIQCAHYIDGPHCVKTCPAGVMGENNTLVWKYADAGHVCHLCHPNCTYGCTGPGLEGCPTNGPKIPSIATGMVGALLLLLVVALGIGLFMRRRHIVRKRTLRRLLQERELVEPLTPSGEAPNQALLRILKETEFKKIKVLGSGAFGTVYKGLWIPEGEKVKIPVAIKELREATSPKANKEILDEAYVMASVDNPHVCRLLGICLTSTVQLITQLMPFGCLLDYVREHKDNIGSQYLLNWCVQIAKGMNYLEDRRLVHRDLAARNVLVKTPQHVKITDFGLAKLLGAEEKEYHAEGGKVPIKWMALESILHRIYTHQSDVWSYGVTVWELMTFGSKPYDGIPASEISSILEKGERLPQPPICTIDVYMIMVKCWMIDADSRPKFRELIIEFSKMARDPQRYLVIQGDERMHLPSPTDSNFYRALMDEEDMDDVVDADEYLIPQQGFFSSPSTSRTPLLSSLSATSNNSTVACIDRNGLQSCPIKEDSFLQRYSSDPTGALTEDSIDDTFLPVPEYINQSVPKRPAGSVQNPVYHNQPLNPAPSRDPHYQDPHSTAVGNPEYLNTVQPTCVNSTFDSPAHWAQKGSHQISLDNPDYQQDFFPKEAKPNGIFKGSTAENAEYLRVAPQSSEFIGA
testMethodNotes: Inhibition of recombinant human C-terminal His-tagged/N-terminal GST-tagged EGFR (668 to 1210 residues) expressed in baculovirus infected Sf9 cells using Poly-(Glu, Tyr) as substrate measured after 45 minutes by Kinase-Glo luminescent assay
Answers are plain numbers, as −log10 of the molar value.

Below are worked cases with known answers.
testSmiles | number
O=C(Nc1ccc(-c2cc3c(Nc4ccc(Oc5cccc(C(F)(F)F)c5)c(Cl)c4)ncnc3s2)cc1)NC1CC1 | 6.95
O=C(NCCN1CCOCC1)Nc1ccc(-c2cc3c(Nc4ccc(Oc5cccc(C(F)(F)F)c5)c(Cl)c4)ncnc3s2)cc1 | 7.04
CC(=O)Nc1ccc(-c2cc3c(Nc4ccc(Oc5cccc(C(F)(F)F)c5)c(Cl)c4)ncnc3s2)cc1 | 7.32

Reported pIC50 for Nc1ccc(-c2cc3c(Nc4ccc(Oc5cccc(C(F)(F)F)c5)c(Cl)c4)ncnc3s2)cc1 : what is it?
7.67

----------
Tested on: A-431
testMethodNotes: Cytotoxicity against human A431 cells over expressing EGFR assessed as reduction in cell viability after 72 hrs by sulforhodamine B assay
Type: functional, cell-based
conditionDescription: A-431, 72 h
pIC50: −log10 of the molar value.
observationType: pIC50

testSmiles | result
O=C(O)/C=C\C(=O)Nc1ccc(-c2cc3c(Nc4ccc(Oc5cccc(C(F)(F)F)c5)c(Cl)c4)ncnc3s2)cc1 | < 4.70
Nc1ccc(-c2cc3c(NCc4ccccc4)ncnc3s2)cc1 | < 4.70

Now for a further compound.
If you can, please state the reported pIC50 value of O=[N+]([O-])c1ccc(-c2cc3c(Nc4ccc5c(cnn5Cc5ccccc5)c4)ncnc3s2)cc1 .
< 4.70
